condition notes: in ethanol, 288.15 K
recorded endpoint: solubility (mole fraction)
The answer should be a number; do not append a unit.

Query block: // fetch solubility (mole fraction) given entry CCc1nnc(NC(=O)CCCCCNC(C)=O)s1
Result block: 0.000578

----------
condition notes: in ethanol, 318.15 K
recorded endpoint: solubility (mole fraction)
The answer should be a number; do not append a unit.

Query block: // fetch solubility (mole fraction) given entry CCc1nnc(NC(=O)CCCCCNC(C)=O)s1
Result block: 0.0026

----------
condition notes: in n-octanol, 313.15 K
recorded endpoint: solubility (mole fraction)
The answer should be a number; do not append a unit.

Query block: // fetch solubility (mole fraction) given entry CCc1nnc(NC(=O)CCCCCNC(C)=O)s1
Result block: 0.00167

----------
condition notes: in n-octanol, 293.15 K
recorded endpoint: solubility (mole fraction)
The answer should be a number; do not append a unit.

Query block: // fetch solubility (mole fraction) given entry CCc1nnc(NC(=O)CCCCCNC(C)=O)s1
Result block: 0.000814

----------
condition notes: in ethanol, 303.15 K
recorded endpoint: solubility (mole fraction)
The answer should be a number; do not append a unit.

Query block: // fetch solubility (mole fraction) given entry CCc1nnc(NC(=O)CCCCCNC(C)=O)s1
Result block: 0.00118

----------
condition notes: in n-hexane, 313.15 K
recorded endpoint: solubility (mole fraction)
The answer should be a number; do not append a unit.

Query block: // fetch solubility (mole fraction) given entry CCc1nnc(NC(=O)CCCCCNC(C)=O)s1
Result block: 3.55e-05

----------
condition notes: in n-hexane, 308.15 K
recorded endpoint: solubility (mole fraction)

Query block: // fetch solubility (mole fraction) given entry CCc1nnc(NC(=O)CCCCCNC(C)=O)s1
Result block: 3.05e-05

----------
condition notes: in n-hexane, 303.15 K
recorded endpoint: solubility (mole fraction)
The answer should be a number; do not append a unit.

Query block: // fetch solubility (mole fraction) given entry CCc1nnc(NC(=O)CCCCCNC(C)=O)s1
Result block: 2.47e-05

----------
condition notes: in n-octanol, 308.15 K
recorded endpoint: solubility (mole fraction)

Query block: // fetch solubility (mole fraction) given entry CCc1nnc(NC(=O)CCCCCNC(C)=O)s1
Result block: 0.00142

----------
condition notes: in n-hexane, 298.15 K
recorded endpoint: solubility (mole fraction)
The answer should be a number; do not append a unit.

Query block: // fetch solubility (mole fraction) given entry CCc1nnc(NC(=O)CCCCCNC(C)=O)s1
Result block: 2.15e-05

----------
condition notes: in ethanol, 313.15 K
recorded endpoint: solubility (mole fraction)
The answer should be a number; do not append a unit.

Query block: // fetch solubility (mole fraction) given entry CCc1nnc(NC(=O)CCCCCNC(C)=O)s1
Result block: 0.0021

----------
condition notes: in n-octanol, 288.15 K
recorded endpoint: solubility (mole fraction)
The answer should be a number; do not append a unit.

Query block: // fetch solubility (mole fraction) given entry CCc1nnc(NC(=O)CCCCCNC(C)=O)s1
Result block: 0.000685

----------
condition notes: in n-octanol, 318.15 K
recorded endpoint: solubility (mole fraction)
The answer should be a number; do not append a unit.

Query block: // fetch solubility (mole fraction) given entry CCc1nnc(NC(=O)CCCCCNC(C)=O)s1
Result block: 0.00194
